This collection of values is drawn from PubChem BioAssay (NCI).

# Test system: MCF7 breast
# EXPERIMENTAL_DETAILS: NCI tumour cell line growth inhibition, 48 h; in the data active means GI50 below about 0.43 µM; inactive means the rest
Please reply with one of these outcomes: 1.0 for active, 0.0 for inactive

INSERT INTO measurements (compound, class_assignment) VALUES
  ('N#Cc1ccc(OC(=O)Nc2ccc(Cl)c(Cl)c2)cc1', 0.0),
  ('CN1CCN(c2ccc(Nc3ncc4cc(C#N)c(=O)n(C5CCCC5)c4n3)cc2)CC1', 1.0),
  ('O=C(Nc1ccc(-n2cc(-c3ccncc3)c(-c3ccc(O)c(Cl)c3)n2)cc1)Nc1cccc(Cl)c1Cl', 0.0),
  ('COC(=O)CCC1=C(CC(=O)OC)C(C)=N/C1=C\c1[nH]c(-c2ccc[nH]2)cc1OC', 0.0),
  ('O=C(NO)c1ccc(CN(c2cnccn2)c2cnccn2)cc1', 0.0),
  ('CCN1C(=O)N(CC)C2Nn3c(s/c(=C4\C(=O)N(C)c5ccccc54)c3=O)=NC21 (stereo not drawn)', 0.0);

[Q] Hi, do you know how COc1ccc2c(Oc3ccc(NC(=O)c4c(C)n(CC(C)(C)O)n(-c5ccccc5)c4=O)nc3)ccnc2c1 came out in this test?
[A] 0.0

[Q] Hi, do you know how O=C(NCc1ccc(S(=O)(=O)c2cc(F)cc(F)c2)cc1)c1ccc2nccn2c1 came out in this test?
[A] 0.0
